Test system: HeLa
Method summary: Cytotoxicity against human HeLa cells assessed as growth inhibition after 72 hrs by MTT assay
Format: functional, cell-based
Experimental endpoint: pIC50
// pIC50 is dimensionless: -log10 of concentration (M)

Query: # pIC50 lookup, item COc1cccc(/C=C/C(=O)Nc2cc(OC)c(OC)c(OC)c2)c1
Response: 4.78

Query: Entry under review: COc1cc(NC(=O)/C=C/c2cccc(OCc3ccccc3)c2)cc(OC)c1OC . Reported pIC50?
Response: 5.66

Query: Reported pIC50, molecule C=C(Br)C(=O)Nc1cccc(/C=C/C(=O)Nc2ccc(OC(F)(F)F)cc2)c1 : ____
Response: 4.54

Query: Reported pIC50, molecule C=C(Br)C(=O)Nc1cccc(/C=C/C(=O)Nc2cccc(F)c2)c1 : ____
Response: 5.92

Query: Returns the measured pIC50 for the input molecule. Input: C=C(Br)C(=O)Nc1cccc(/C=C/C(=O)Nc2ccc(OCC)cc2)c1
Response: 5.70

Query: Could you tell me which pIC50 is on file for C=C(Br)C(=O)Nc1cccc(/C=C/C(=O)Nc2ccc(C)cc2)c1 ?
Response: 5.82

Query: Given the molecule C=C(Br)C(=O)Nc1ccc(/C=C/C(=O)Nc2ccc(OC)cc2)cc1 , what is its reported pIC50?
Response: 5.80

Query: # input molecule: C=C(Br)C(=O)Nc1cccc(/C=C/C(=O)NCc2ccc(C)cc2)c1 ; wanted: its pIC50
Response: 5.77

Query: Need pIC50, item C=C(Br)C(=O)Nc1cccc(/C=C/C(=O)Nc2cc(OC)cc(OC)c2)c1
Response: 5.66

Query: What value of measured pIC50 is listed for C=C(Br)C(=O)Nc1cccc(/C=C/C(=O)Nc2ccc(F)c(F)c2)c1 ?
Response: 5.72

Query: Give the measured pIC50 of C=C(Br)C(=O)Nc1cccc(/C=C/C(=O)Nc2ccc(SC(F)(F)F)cc2)c1 .
Response: 4.72

###

System: CCRF-CEM
Method summary: Cytotoxicity against human CEM cells assessed as growth inhibition after 72 hrs by MTT assay
Assay type: functional, cell-based
Field: pIC50. Provide a value for each of the compounds that follow.
Reminder that pIC50 means the negative base-10 logarithm of the concentration expressed in mol/L.

Query: Report pIC50 for C=C(Br)C(=O)Nc1cccc(/C=C/C(=O)Nc2cc(OC)c(OC)c(OC)c2)c1 please.
Response: 7.23

Query: What value of pIC50 has been recorded for this entry: C=C(Br)C(=O)Nc1cccc(/C=C/C(=O)Nc2ccc(OC)cc2)c1
Response: 7.59

Query: pIC50 lookup needed for C=C(Br)C(=O)Nc1cccc(/C=C/C(=O)Nc2cc(OC)cc(OC)c2)c1 , thanks.
Response: 7.96

Query: Need pIC50, item C=C(Br)C(=O)Nc1cccc(/C=C/C(=O)Nc2cccc(F)c2)c1
Response: 4.59

Query: Give its pIC50 value. Item: C=C(Br)C(=O)Nc1cccc(/C=C/C(=O)Nc2ccc(OC)c(OC)c2)c1
Response: 7.68

Query: Could you share which pIC50 value was measured for COc1cccc(/C=C/C(=O)Nc2cc(OC)c(OC)c(OC)c2)c1 ?
Response: 4.63

Query: Any idea what its pIC50 is? The compound is COc1cc(NC(=O)/C=C/c2cccc(N)c2)cc(OC)c1OC
Response: 4.39

Query: pIC50 for C=C(Br)C(=O)Nc1cccc(/C=C/C(=O)Nc2ccc(F)c(F)c2)c1 ?
Response: 7.89

Query: Need pIC50 of C=C(Br)C(=O)Nc1cccc(/C=C/C(=O)Nc2ccc(N3CCOCC3)cc2)c1 , thanks.
Response: 6.21

Query: What measured pIC50 goes with C=C(Br)C(=O)Nc1cccc(/C=C/C(=O)Nc2cccc3ccccc23)c1 ?
Response: 5.74

Query: Given C=C(Br)C(=O)Nc1ccc(/C=C/C(=O)Nc2ccc(OC)cc2)cc1 , state its recorded pIC50.
Response: 7.66

Query: # pIC50 lookup, item C=C(Br)C(=O)Nc1cccc(/C=C/C(=O)Nc2ccccc2)c1
Response: 6.72

Query: Endpoint output: pIC50 of C=C(Br)C(=O)Nc1ccc(/C=C/C(=O)Nc2cc(OC)c(OC)c(OC)c2)cc1 . Value?
Response: 7.60

Query: Fill in: pIC50 of C=C(Br)C(=O)Nc1cccc(/C=C/C(=O)Nc2ccc(C)cc2)c1 is ___
Response: 6.57

Query: Field request: pIC50 | item: C=C(Br)C(=O)Nc1cccc(/C=C/C(=O)Nc2ccc(OCC)cc2)c1
Response: 7.01

Query: Find the recorded pIC50 belonging to C=C(Br)C(=O)Nc1cccc(/C=C/C(=O)Nc2ccc(SC(F)(F)F)cc2)c1 and report it.
Response: 4.82
